# experimentalTarget: Amine oxidase [copper-containing] 3 (Mus musculus) (UniProt O70423)
# Sequence (O70423 whole entry): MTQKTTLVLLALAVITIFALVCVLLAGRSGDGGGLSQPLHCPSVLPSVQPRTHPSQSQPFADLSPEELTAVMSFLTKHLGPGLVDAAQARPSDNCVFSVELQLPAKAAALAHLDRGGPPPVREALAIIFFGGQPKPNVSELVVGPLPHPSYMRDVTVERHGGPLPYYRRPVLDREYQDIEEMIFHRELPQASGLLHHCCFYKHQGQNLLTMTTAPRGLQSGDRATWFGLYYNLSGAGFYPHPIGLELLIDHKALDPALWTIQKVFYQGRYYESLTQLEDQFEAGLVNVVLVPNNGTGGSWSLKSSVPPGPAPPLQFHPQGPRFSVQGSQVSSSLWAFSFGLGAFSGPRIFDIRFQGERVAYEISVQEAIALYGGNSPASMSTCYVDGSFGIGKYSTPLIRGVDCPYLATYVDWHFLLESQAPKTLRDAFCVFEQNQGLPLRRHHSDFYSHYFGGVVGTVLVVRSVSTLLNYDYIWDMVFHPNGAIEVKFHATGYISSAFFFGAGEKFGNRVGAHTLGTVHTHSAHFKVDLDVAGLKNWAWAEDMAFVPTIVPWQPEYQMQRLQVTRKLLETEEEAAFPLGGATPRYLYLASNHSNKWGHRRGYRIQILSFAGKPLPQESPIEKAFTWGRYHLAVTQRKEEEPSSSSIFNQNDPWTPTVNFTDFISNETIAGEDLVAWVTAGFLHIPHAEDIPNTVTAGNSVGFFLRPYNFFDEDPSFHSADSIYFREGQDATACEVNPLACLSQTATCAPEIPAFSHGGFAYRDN
# assayDetails: Activity of mouse SSAO measured as hydrogen peroxide production at 100 uM relative to benzylamine oxidation
# Assay type: functional
propertyName: Activity (%)
Reply with just the number (in %).

Consider the reported Activity for these compounds:
compound | experimentalTarget | Activity [%]
COc1ccc(O)c(CN)c1 | Amine oxidase [copper-containing] 3 (Mus musculus) (UniProt O70423) | 0
COc1cc(CN)cc(OC)c1 | Amine oxidase [copper-containing] 3 (Mus musculus) (UniProt O70423) | 0.75
NCCc1ccccc1 | Amine oxidase [copper-containing] 3 (Mus musculus) (UniProt O70423) | 19
Cc1ccc(CN)cc1 | Amine oxidase [copper-containing] 3 (Mus musculus) (UniProt O70423) | 0
CCC(=O)NCc1cccc(CN)c1 | Amine oxidase [copper-containing] 3 (Mus musculus) (UniProt O70423) | 27
COc1cccc2[nH]cc(CCN)c12 | Amine oxidase [copper-containing] 3 (Mus musculus) (UniProt O70423) | 5.54
NCc1cccc(CNC(=O)c2ccc(O)cc2)c1 | Amine oxidase [copper-containing] 3 (Mus musculus) (UniProt O70423) | 26
COc1ccc(CN)cc1 | Amine oxidase [copper-containing] 3 (Mus musculus) (UniProt O70423) | 4.56
NCc1ccc(C(=O)NCc2cccc(CN)c2)cc1 | Amine oxidase [copper-containing] 3 (Mus musculus) (UniProt O70423) | 12
NCCc1ccc(F)cc1 | Amine oxidase [copper-containing] 3 (Mus musculus) (UniProt O70423) | 18

[Q] Bench note: what Activity did `NCc1ccc(OC(F)(F)F)cc1` show?
[A] 66.2

[Q] Bench note: what Activity did `Cc1ccc(S(=O)(=O)NCc2cccc(CN)c2)cc1` show?
[A] 14

[Q] Bench note: what Activity did `NCCOc1ccccc1` show?
[A] 14.6
